As shown below, each of these binders has a reported IC50, inhibition of rHMG1 stimulated IL-6 release from human PBMC value.
system.tested: T1, recombinant HMG1 purified from E. coli as a calmodulin binding protein (CBP) fusion protein (human, UniProt A9RA84 1-215 (Papio anubis entry))
T1 sequence: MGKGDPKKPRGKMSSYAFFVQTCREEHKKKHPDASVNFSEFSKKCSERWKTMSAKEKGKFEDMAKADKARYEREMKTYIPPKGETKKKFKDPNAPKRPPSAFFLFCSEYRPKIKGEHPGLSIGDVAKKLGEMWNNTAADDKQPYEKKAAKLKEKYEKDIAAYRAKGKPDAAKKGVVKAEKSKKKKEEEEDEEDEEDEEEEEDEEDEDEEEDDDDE
test.protocol: cell-based or functional assay
assay.endpoint: IC50, inhibition of rHMG1 stimulated IL-6 release from human PBMC

- anti-HMG1 antibody G12 (antibody, V domains shown) VH: EVQLLESGGGLVQPGGSLRLSCAASGFTFSYYMMTWVRQAPGKGLEWVSSISPSGGYTIYADSAKGRFTISRDNSKNTLYLQMNSLRAEDTAVYYCARALSTGSFWDYWGQGTLVTVSS VL: DIQMTQSPGTLSLSPGERATLSCRASESLTSTYVAWYQHKPGQAPRLLIHGGSTRATGIPVRFSGSGSGTDFTLTIATLEPEDFAVYYCQQYGSSPYTFGQGTKLEIK: 1.12 nM
- anti-HMG1 antibody S10 (antibody, V domains shown) VH: EVQLLESGGGLVQPGGSLRLSCAASGFTFSWYDMWWVRQAPGKGLEWVSWIVPSGGITAYADSVKGRFTISRDNSKNTLYLQMNSLRAEDTATYYCARGNYGPSPFDYWGQGTLVTVSS VL: DIQMTQSPGTLSLSPGERATLSCRATQSVRKNFLAWYQQKPGQAPRLLIYDASSRATGIPDRFSGSGSGTDFTLTISRLEPEDFAVYYCQQYGNSPIIFGQGTRLEIK: 0.324 nM
- anti-HMG1 antibody S16 (antibody, V domains shown, also called ATCC PTA-6259) VH: EVQLLESGGGLVQPGGSLRLSCAASGFTFSWYSMLWVRQAPGKGLEWVSYISPSGGFTNYADSVKGRFTISRDNSKNTLYLQMNSLRAEDTAVYYCARWDYNSGWYYDHWGQGTLVTVSS VL: DIQMTQSPDTLSLSPGERATLSCRASQSVNSRNLAWYQQKPGQAPRLLIYGASTRATGIPDRFSGSVSGTEFTLTISSLQPDDFATYYCQQYNSYFTFGQGTKLEIK: 0.56 nM
- anti-HMG1 antibody S14 (antibody, V domains shown) VH: EVQLLESGGGLVQPGGSLRLSCAASGFTFSWYETGWVRQAPGKGLEWVSGISPSGGYTQYADSVKGRFTISRDNSKNTLYLQMNSLRAEDTAVYYCARSGVGATKIFDYWGQGTLVTVSS VL: DIQMTQSPSSLSASVGDRVTIICRANERINTYLNWYQQKPGKAPKLLISGTSSLESGVPSRFSGSGSGTEFTLSISSLQPEDFASYYCQQSYSSPYTFGQGTNLEIR: 0.191 nM

Where do the numbers come from? From patent US20080311122A1.
